Hello, the source for this data is paper PMC8831383, in case you need it.

Reported values of melting point for individual entries

Answered examples (2):
[
  {
    "structure-as-smiles": "O=C(c1ccc(NCc2cnccn2)cn1)N1CC2(CCOCC2)C1",
    "melting point": "104.6 to 105 °C"
  },
  {
    "structure-as-smiles": "O=C(c1ccc(NCc2cnccn2)cc1)N1CC2(CCOCC2)C1",
    "melting point": "191.6 to 191.9 °C"
  }
]

We next turn to a different compound, shown below.
Req: Please give the measured melting point for this compound: "O=C(c1ccc(NCc2cccnc2)cn1)N1CCC2(CCOCC2)C1"
Resp: 176.5 to 177.2 °C

* * *

Target: human recombinant VNN1 enzyme (Homo sapiens)
Sequence (O95497 22-513): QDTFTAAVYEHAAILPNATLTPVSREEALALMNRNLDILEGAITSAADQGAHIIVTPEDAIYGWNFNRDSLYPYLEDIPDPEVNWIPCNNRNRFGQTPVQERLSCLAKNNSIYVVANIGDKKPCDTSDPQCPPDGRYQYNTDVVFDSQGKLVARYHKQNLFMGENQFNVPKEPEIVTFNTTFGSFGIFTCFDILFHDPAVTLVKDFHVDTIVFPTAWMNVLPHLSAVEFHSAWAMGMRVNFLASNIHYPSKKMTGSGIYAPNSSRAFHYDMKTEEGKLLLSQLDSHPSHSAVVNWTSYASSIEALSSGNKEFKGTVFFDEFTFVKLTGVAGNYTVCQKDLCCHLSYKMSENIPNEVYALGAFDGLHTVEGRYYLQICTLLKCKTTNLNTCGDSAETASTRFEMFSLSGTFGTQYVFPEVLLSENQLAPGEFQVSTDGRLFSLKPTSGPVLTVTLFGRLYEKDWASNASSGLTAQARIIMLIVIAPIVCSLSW
Experiment: Inhibitory activity against human recombinant VNN1 enzyme in vitro with fluorescent probe PA-AFC
Conditions: human recombinant VNN1 30 ng/ml, probe PA-AFC 20 μM, 37°C, 30 min + 30 min
quantity-name: IC50 (µM)
Entry rule: numbers only, all in µM.

[
  {
    "compound": "COc1cc(C(=O)N2CCC3(CCOCC3)C2)ccc1NCc1cccnc1 [i]",
    "tgt": "human recombinant VNN1 enzyme (Homo sapiens)",
    "IC50 [µM]": 115
  }
]

Req: Please give the measured IC50 for this compound: O=C(c1ccc(NCc2cccnc2)cn1)N1CCC2(CCOCC2)C1 [e]
Resp: 43.7

Req: Please give the measured IC50 for this compound: O=C(c1ccc(NCc2cnccn2)cc1)N1CC2(CCOCC2)C1 [d]
Resp: 28.5

Req: Please give the measured IC50 for this compound: COc1cc(C(=O)N2CC3(CCOCC3)C2)ccc1NCc1cccnc1 [j]
Resp: 138

Req: Please give the measured IC50 for this compound: O=C(c1ccc(NCc2cnccn2)cn1)N1CC2(CCOCC2)C1 [h]
Resp: 84.6

Req: Please give the measured IC50 for this compound: O=C(c1ccc(NCc2cccnc2)cc1)N1CCC2(CCOCC2)C1 [a]
Resp: 20.2

Req: Please give the measured IC50 for this compound: O=C(c1ccc(NCc2cccnc2)cn1)N1CC2(CCOCC2)C1 [f]
Resp: 46.2
